Value source: ChEMBL document CHEMBL5291721

So I've got AC50 readings for B2 bradykinin receptor (Homo sapiens, UniProt P30411), take a look.

[[record]]
compound = "NC(=O)c1ncn([C@@H]2O[C@H](CO)[C@@H](O)[C@H]2O)c1O [MIZORIBINE]"
valuereported = "> 30 µM"

[[record]]
compound = "C[C@H]1C[C@@H]2[C@H]([C@@H](O)C[C@@]3(C)[C@H]2CC[C@]3(O)C(=O)COC(=O)CCC(=O)O)[C@@]2(C)C=CC(=O)C=C12 [METHYLPREDNISOLONE HEMISUCCINATE]"
valuereported = "> 30 µM"

[[record]]
compound = "NC[C@H]1CC[C@H](C(=O)O)CC1 [TRANEXAMIC ACID]"
valuereported = "> 10 µM"

[[record]]
compound = "CN(C)[C@@H]1C(O)=C(C(N)=O)C(=O)[C@@]2(O)C(O)=C3C(=O)c4c(O)ccc(Cl)c4[C@@H](O)[C@H]3C[C@@H]12 [DEMECLOCYCLINE]"
valuereported = "> 10 µM"


Please examine the following record next.
Query :: Field request: AC50 | item: CC/C=C\C/C=C\C/C=C\CCCCCCCC(=O)O [LINOLENIC ACID]
Result :: > 30 µM
